- experimentalDetails: Relaxivity r1 in water at 20 MHz
- Type: physicochemical
- runConditions: 37 °C, absence of HSA
r1 (relaxivity) values by entry
State the answer as a number, implicitly in mM⁻¹ s⁻¹.

Sample answers from the record:
INSERT INTO results (molecule, resultunits, reportedmeasurement) VALUES
  ('O=C(O)CN(CC(=O)NC(CO)CO)C1CCCCC1N(CC(=O)O)CC(=O)NC(CO)CO (stereo not shown) [drawing 24]', 'mM⁻¹ s⁻¹', 3.94),
  ('O=C(O)CN(CC(=O)N1CCC(Cc2ccccc2)CC1)c1ccccc1N(CC(=O)O)CC(=O)N1CCC(Cc2ccccc2)CC1 [drawing 28]', 'mM⁻¹ s⁻¹', 4.04),
  ('O=C(O)CN(CC(=O)N1CCCCC1)C1CCCCC1N(CC(=O)O)CC(=O)N1CCCCC1 (stereo not shown) [drawing 20]', 'mM⁻¹ s⁻¹', 3.49);

Here's the next entry for you.
Lookup result for O=C(O)CN(CC(=O)N1CCOCC1)C1CCCCC1N(CC(=O)O)CC(=O)N1CCOCC1 (stereo not shown) ; measured r1 (relaxivity): 2.95

---

- experimentalDetails: Decomplexation of Mn(II) complexes: transmetallation with Cu2+ ions followed by spectrophotometry
- Type: physicochemical
- runConditions: pH 7.4, 25 °C, calculated using rate constants, read-out: t½ (half-life of decomplexation) (converted)
half-life values by entry
State the answer as a number, implicitly in h.

Lookup result for O=C(O)CN(CC(=O)NC(CO)CO)C1CCCCC1N(CC(=O)O)CC(=O)NC(CO)CO (stereo not shown) [drawing 37] ; measured half-life: 166

Lookup result for O=C(O)CN(CC(=O)N1CCCCC1)C1CCCCC1N(CC(=O)O)CC(=O)N1CCCCC1 (stereo not shown) [drawing 29] ; measured half-life: 285

Lookup result for CCCCNC(=O)CN(CC(=O)O)C1CCCCC1N(CC(=O)O)CC(=O)NCCCC (stereo not shown) [drawing 39] ; measured half-life: 57

Lookup result for CN(C)C(=O)CN(CC(=O)O)C1CCCCC1N(CC(=O)O)CC(=O)N(C)C (stereo not shown) [drawing 38] ; measured half-life: 131

---

- experimentalDetails: Relaxivity r1 in water at 20 MHz
- Type: physicochemical
- runConditions: 37 °C, absence of HSA
Checkbox rule: r1 (relaxivity) lower than 4 mM⁻¹ s⁻¹ = rule met; r1 (relaxivity) not lower than 4 mM⁻¹ s⁻¹ = rule not met.

These recorded examples may help you get a feel for the data.
INSERT INTO measurements (molecule, cat) VALUES
  ('O=C(O)CN(CC(=O)N1CCC(C(=O)O)CC1)C1CCCCC1N(CC(=O)O)CC(=O)N1CCC(C(=O)O)CC1 (centres unmarked)', 'rule met'),
  ('CN(C)C(=O)CN(CC(=O)O)C1CCCCC1N(CC(=O)O)CC(=O)N(C)C (centres unmarked) [drawing 25]', 'rule met');

Lookup: Is r1 (relaxivity) strictly under 4 mM⁻¹ s⁻¹ for the entry O=C(O)CN(CC(=O)N1CCCCC1)c1ccccc1N(CC(=O)O)CC(=O)N1CCCCC1 [drawing 27] ?
Found: rule met

Lookup: Is r1 (relaxivity) strictly under 4 mM⁻¹ s⁻¹ for the entry CCCCNC(=O)CN(CC(=O)O)C1CCCCC1N(CC(=O)O)CC(=O)NCCCC (centres unmarked) [drawing 26] ?
Found: rule met

Lookup: Is r1 (relaxivity) strictly under 4 mM⁻¹ s⁻¹ for the entry O=C(O)CN(CC(=O)N1CCC(Cc2ccccc2)CC1)C1CCCCC1N(CC(=O)O)CC(=O)N1CCC(Cc2ccccc2)CC1 (centres unmarked) ?
Found: rule not met

---

- experimentalTarget: human serum albumin (HSA) (Homo sapiens)
- Sequence (P02768 25-609): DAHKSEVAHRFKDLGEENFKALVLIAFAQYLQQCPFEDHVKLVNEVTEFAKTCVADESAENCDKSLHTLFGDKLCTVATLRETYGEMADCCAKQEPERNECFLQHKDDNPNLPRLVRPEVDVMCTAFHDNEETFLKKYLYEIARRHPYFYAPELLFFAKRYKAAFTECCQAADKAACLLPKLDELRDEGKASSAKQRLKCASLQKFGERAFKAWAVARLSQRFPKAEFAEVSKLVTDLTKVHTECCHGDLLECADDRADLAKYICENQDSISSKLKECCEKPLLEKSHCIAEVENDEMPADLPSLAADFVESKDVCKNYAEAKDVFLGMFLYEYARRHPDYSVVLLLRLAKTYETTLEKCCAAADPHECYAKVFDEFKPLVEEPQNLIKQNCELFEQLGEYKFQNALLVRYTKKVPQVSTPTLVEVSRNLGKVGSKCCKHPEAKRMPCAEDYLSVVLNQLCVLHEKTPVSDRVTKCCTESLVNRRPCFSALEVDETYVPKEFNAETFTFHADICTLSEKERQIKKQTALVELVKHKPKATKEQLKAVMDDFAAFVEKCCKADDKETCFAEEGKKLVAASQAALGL
- runConditions: presence of HSA, 37 °C, 20 MHz
measuredAttribute: r1 HSA (relaxivity) (mM⁻¹ s⁻¹)
State the answer as a number, implicitly in mM⁻¹ s⁻¹.

INSERT INTO assay_data (compound, measuredattribute, resultunits, reportedmeasurement) VALUES
  ('O=C(O)CN(CC(=O)N1CCOCC1)C1CCCCC1N(CC(=O)O)CC(=O)N1CCOCC1 (stereo not drawn)', 'r1 HSA (relaxivity)', 'mM⁻¹ s⁻¹', 6.57);

Lookup result for O=C(O)CN(CC(=O)N1CCCCC1)c1ccccc1N(CC(=O)O)CC(=O)N1CCCCC1 [drawing 27] ; measured r1 HSA (relaxivity): 6.78

Lookup result for O=C(O)CN(CC(=O)N1CCCCC1)C1CCCCC1N(CC(=O)O)CC(=O)N1CCCCC1 (stereo not drawn) [drawing 20] ; measured r1 HSA (relaxivity): 4.56

Lookup result for O=C(O)CN(CC(=O)N1CCC(Cc2ccccc2)CC1)c1ccccc1N(CC(=O)O)CC(=O)N1CCC(Cc2ccccc2)CC1 [drawing 28] ; measured r1 HSA (relaxivity): 23.84

Lookup result for CCCCNC(=O)CN(CC(=O)O)C1CCCCC1N(CC(=O)O)CC(=O)NCCCC (stereo not drawn) [drawing 26] ; measured r1 HSA (relaxivity): 5.37

Lookup result for O=C(O)CN(CC(=O)NC(CO)CO)C1CCCCC1N(CC(=O)O)CC(=O)NC(CO)CO (stereo not drawn) [drawing 24] ; measured r1 HSA (relaxivity): 4.44

Lookup result for O=C(O)CN(CC(=O)N1CCC(Cc2ccccc2)CC1)C1CCCCC1N(CC(=O)O)CC(=O)N1CCC(Cc2ccccc2)CC1 (stereo not drawn) ; measured r1 HSA (relaxivity): 18.16

Lookup result for CN(C)C(=O)CN(CC(=O)O)C1CCCCC1N(CC(=O)O)CC(=O)N(C)C (stereo not drawn) [drawing 25] ; measured r1 HSA (relaxivity): 9.94

Lookup result for O=C(O)CN(CC(=O)N1CCC(C(=O)O)CC1)C1CCCCC1N(CC(=O)O)CC(=O)N1CCC(C(=O)O)CC1 (stereo not drawn) ; measured r1 HSA (relaxivity): 4.65

---

- experimentalDetails: Relaxivity r1 in water at 20 MHz
- Format: physicochemical
- runConditions: 25 °C, absence of HSA
measuredAttribute: r1 (relaxivity) (mM⁻¹ s⁻¹)
State the answer as a number, implicitly in mM⁻¹ s⁻¹.

INSERT INTO assay_data (molecule, reportedmeasurement) VALUES
  ('O=C(O)CN(CC(=O)N1CCCCC1)c1ccccc1N(CC(=O)O)CC(=O)N1CCCCC1 [drawing 27]', 4.60);

Lookup result for O=C(O)CN(CC(=O)NC(CO)CO)C1CCCCC1N(CC(=O)O)CC(=O)NC(CO)CO (stereo not drawn) [drawing 24] ; measured r1 (relaxivity): 5.17

Lookup result for CCCCNC(=O)CN(CC(=O)O)C1CCCCC1N(CC(=O)O)CC(=O)NCCCC (stereo not drawn) [drawing 26] ; measured r1 (relaxivity): 4.64

Lookup result for O=C(O)CN(CC(=O)N1CCC(C(=O)O)CC1)C1CCCCC1N(CC(=O)O)CC(=O)N1CCC(C(=O)O)CC1 (stereo not drawn) ; measured r1 (relaxivity): 4.97

Lookup result for O=C(O)CN(CC(=O)N1CCC(Cc2ccccc2)CC1)C1CCCCC1N(CC(=O)O)CC(=O)N1CCC(Cc2ccccc2)CC1 (stereo not drawn) ; measured r1 (relaxivity): 5.56

Lookup result for O=C(O)CN(CC(=O)N1CCC(Cc2ccccc2)CC1)c1ccccc1N(CC(=O)O)CC(=O)N1CCC(Cc2ccccc2)CC1 [drawing 28] ; measured r1 (relaxivity): 5.29

Lookup result for O=C(O)CN(CC(=O)N1CCCCC1)C1CCCCC1N(CC(=O)O)CC(=O)N1CCCCC1 (stereo not drawn) [drawing 20] ; measured r1 (relaxivity): 4.43

Lookup result for O=C(O)CN(CC(=O)N1CCOCC1)C1CCCCC1N(CC(=O)O)CC(=O)N1CCOCC1 (stereo not drawn) ; measured r1 (relaxivity): 3.77

Lookup result for CN(C)C(=O)CN(CC(=O)O)C1CCCCC1N(CC(=O)O)CC(=O)N(C)C (stereo not drawn) [drawing 25] ; measured r1 (relaxivity): 4.37

Reference source for all entries: patent US10265422B2
